Data origin: PubChem BioAssay AID1456

# ASSAY SYSTEM: Solute carrier family 12 member 5 (Homo sapiens) (UniProt Q9H2X9)
# Sequence (Q9H2X9 whole entry, looked up): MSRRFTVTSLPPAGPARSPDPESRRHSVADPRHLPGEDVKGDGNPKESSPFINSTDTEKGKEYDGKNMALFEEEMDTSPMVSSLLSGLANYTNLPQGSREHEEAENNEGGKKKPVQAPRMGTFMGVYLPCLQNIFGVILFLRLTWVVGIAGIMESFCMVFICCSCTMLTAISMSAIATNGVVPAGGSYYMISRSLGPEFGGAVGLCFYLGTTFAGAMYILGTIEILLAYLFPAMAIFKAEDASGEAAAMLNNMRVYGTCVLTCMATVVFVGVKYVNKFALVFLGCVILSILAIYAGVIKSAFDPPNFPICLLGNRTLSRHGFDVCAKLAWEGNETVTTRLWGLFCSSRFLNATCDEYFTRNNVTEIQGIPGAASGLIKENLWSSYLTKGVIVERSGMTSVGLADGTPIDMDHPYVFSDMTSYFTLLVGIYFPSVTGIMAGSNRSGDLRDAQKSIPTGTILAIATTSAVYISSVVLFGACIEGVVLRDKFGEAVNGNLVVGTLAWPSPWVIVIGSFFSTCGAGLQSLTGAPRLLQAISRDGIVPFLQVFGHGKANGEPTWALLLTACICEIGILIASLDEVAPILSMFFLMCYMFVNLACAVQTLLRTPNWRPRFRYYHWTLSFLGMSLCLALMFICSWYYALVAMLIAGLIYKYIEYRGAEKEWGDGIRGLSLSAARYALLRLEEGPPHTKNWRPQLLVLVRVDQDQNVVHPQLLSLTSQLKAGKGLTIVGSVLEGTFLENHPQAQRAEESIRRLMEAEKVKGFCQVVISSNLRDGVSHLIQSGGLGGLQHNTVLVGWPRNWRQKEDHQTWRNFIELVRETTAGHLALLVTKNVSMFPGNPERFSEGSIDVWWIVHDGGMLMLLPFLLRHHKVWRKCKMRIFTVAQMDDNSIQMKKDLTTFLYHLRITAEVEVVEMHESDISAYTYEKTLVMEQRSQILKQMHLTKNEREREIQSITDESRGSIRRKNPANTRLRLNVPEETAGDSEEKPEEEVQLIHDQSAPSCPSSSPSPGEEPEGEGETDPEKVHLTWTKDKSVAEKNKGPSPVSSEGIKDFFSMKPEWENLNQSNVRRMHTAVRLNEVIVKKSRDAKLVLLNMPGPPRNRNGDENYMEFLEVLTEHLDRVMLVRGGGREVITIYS
# ASSAY PROCEDURE: modulation of human KCC2 ion transport – cell-based, HEK293 KCC2, FluoZin-2 fluorescence, MLSMR, primary screen (AID 1456)
# CONDITION: KCC2 cells, thallium flux FluoZin-2 fluorescence; at 10 µM
Among all 190,000 compounds or so, about 4,100 (2.2%) were called active.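 Rule for the calls: active = thallium flux slope and its plate-corrected score both differing from the plate sample mean at a set confidence after two filtering rounds, in either direction; inactive = the rest.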 Many of the other results were omitted from the sample, so actives are more common in it than they were.
Classes used: 1.0 = active, 0.0 = inactive

>  <MOLECULE>
CCOC(=O)C(=O)C1C(=O)Nc2ccccc21 (configuration not stated)

>  <CATEGORY>
0.0

$$$$
>  <MOLECULE>
CC(=O)Nc1ccc(OCC(=O)NCc2ccc(C)cc2)cc1

>  <CATEGORY>
0.0

$$$$
>  <MOLECULE>
Cc1nnc(SC(C(=O)c2ccccc2)c2ccccc2)[nH]c1=O (configuration not stated)

>  <CATEGORY>
0.0

$$$$
>  <MOLECULE>
CCCCC(CC)CNC(=O)C(=O)C1C(=O)Nc2ccccc21 (configuration not stated)

>  <CATEGORY>
1.0

$$$$
>  <MOLECULE>
COc1ccc(S(=O)(=O)Nc2ccc(O)c(Sc3nc4ccccc4s3)c2)cc1

>  <CATEGORY>
0.0

$$$$
>  <MOLECULE>
COc1ccc(NC(=O)c2cn(-c3ccccc3)nc2SC)cc1

>  <CATEGORY>
0.0

$$$$
>  <MOLECULE>
O=C(CN1CCN(C/C=C/c2ccccc2)CC1)Nc1ccc(F)cc1F

>  <CATEGORY>
0.0

$$$$
>  <MOLECULE>
CC(Oc1ccc2ccccc2c1)C(=O)NNC(=S)NC(=O)c1ccco1 (configuration not stated)

>  <CATEGORY>
1.0

$$$$
>  <MOLECULE>
COc1ccc(/C=C/C(=O)Nc2ccc(C)cc2)cc1S(=O)(=O)N1CCOCC1

>  <CATEGORY>
0.0

$$$$
>  <MOLECULE>
Cc1ccc(OCC(=O)NNC(=S)NCc2ccccc2)cc1

>  <CATEGORY>
1.0

$$$$
>  <MOLECULE>
Cc1nnc(SCC(=O)N2CCc3ccccc32)n1-c1ccccc1

>  <CATEGORY>
0.0

$$$$
>  <MOLECULE>
O=C(Cn1cnc2cc([N+](=O)[O-])ccc2c1=O)NC(=O)NCc1ccccc1

>  <CATEGORY>
0.0

$$$$
>  <MOLECULE>
CC(CO)(CO)NC(=O)c1ccc(=O)[nH]n1

>  <CATEGORY>
0.0

$$$$
>  <MOLECULE>
Cn1cccc1C(C#N)c1ccccc1C#N (configuration not stated)

>  <CATEGORY>
0.0

$$$$
>  <MOLECULE>
O=C(c1cccc(C(=O)N2CCc3ccccc32)n1)N1CCc2ccccc21

>  <CATEGORY>
0.0

$$$$
>  <MOLECULE>
CCNC(=S)NNC(=O)Cc1ccccc1

>  <CATEGORY>
0.0

$$$$
>  <MOLECULE>
Cc1nc2cc(NC(=O)Nc3cccc(F)c3)ccc2n1C

>  <CATEGORY>
0.0

$$$$
